For each entry below, report its IC50 value.
- TESTED_ON: SF9 affinity purified rat farnesyl protein transferase (Rattus norvegicus, UniProt Q02293+Q04631)
- Construct: made in house; host or cells: Sf9 insect cells (baculovirus system inferred from b7)
- PROTOCOL_DESCRIPTION: PFT inhibitory activity (radiolabeled farnesyl pyrophosphate, streptavidin bead assay)
- Format: biochemical
- CONDITIONS_USED: HEPES buffer pH 7.4 containing 5 mM potassium phosphate; read-out: IC50 (μM) 5 mM K3 PO4 -2
- Procedure: The protein:farnesyl transferase (PFT) or farnesyl protein transferase (FPT) inhibitory activity of compounds of the present invention were assayed in HEPES buffer (pH 7.4) containing 5 mM potassium phosphate and 20 μM ZnCl2. The solution also contained 5 mM DTT (dithiothreitol), 5 mM MgCl2, and 0.1% PEG 8000. […] After allowing the plate to settle for 30 minutes at room temperature, radioactivity was quantitated on a microBeta counter (Model 1450, Wallec). […]
Provide only the numeric value, understood in µM.

Entry CC(C)(CNC(=O)CN(Cc1ccc(OCc2ccccn2)cc1)C(=O)[C@H](Cc1c[nH]cn1)NC(=O)OCc1ccccc1)c1ccccc1 — recorded IC50 = 0.001

Noted for Cc1cccc(CN(CC(=O)NCC(C)c2ccccc2)C(=O)[C@H](Cc2c[nH]cn2)NC(=O)OCc2ccccc2)c1 (stereo partly drawn) : its IC50 reads 0.035

Kindly note the recorded IC50 for CC(C)(CNC(=O)CN(Cc1ccc(-c2ccccc2)cc1)C(=O)[C@H](Cc1c[nH]cn1)NC(=O)OCc1ccccc1)c1ccccc1 , which is 0.004
